For each entry below, report its melting point value.

Find the recorded melting point belonging to CC(C)c1cc2c(=O)[nH]c(N)nc2s1 and report it.
347 to 349 °C

// returns reported melting point for input Cc1c(-c2ccccc2)sc2nc(NCCN)[nH]c(=O)c12
192 to 194 °C

For the compound Cl.O=C(c1cc(N2CCOCC2)ccn1)N(O)Cc1ccccc1 , what melting point is on record?
185 to 190 °C

Query (compound): Cl.O=C(NO)c1cc(NS(=O)(=O)Cc2ccccc2Cl)ccn1 ; field requested: melting point
215 to 220 °C

Fill in the blank: the reported melting point of CCONC(=O)c1ccc(-c2ccccc2)cn1 is ____.
100 to 105 °C

Please look up its melting point: Cc1c(-c2ccccc2)sc2nc(N3CCOCC3)[nH]c(=O)c12
300 to 320 °C

Dear colleague, I am looking for the recorded melting point of the following compound: Cl.O=C(NO)c1cc(N2CCCCC2)ccn1 (hydrate or solvate)
200 to 202 °C

Return reported melting point; argument: CN(OCc1ccccc1)C(=O)c1cc2ccccc2cn1
70 to 75 °C

Which melting point is listed for O=C(c1cc(-c2cccc(CO)c2)ccn1)N(O)Cc1ccccc1 ?
150 to 155 °C

Which melting point value belongs to Cl.O=C(c1cc(NS(=O)(=O)Cc2cc(Cl)cc(Cl)c2)ccn1)N(O)Cc1ccccc1 ?
189 to 194 °C

Fill blank: measured melting point of the compound CCONC(=O)c1cc(NCCCc2cccc(Cl)c2)ccn1 is ____.
100 to 105 °C

----------
measured.attribute: melting point

What value of melting point has been reported for the following molecule? Cc1c(-c2ccc(F)c(C#N)c2)sc2nc(N)[nH]c(=O)c12
330 to 350 °C

Item O=C(NOC(=O)c1cc(N2CCCCC2)ccn1)c1cc(N2CCCCC2)ccn1 has what recorded melting point?
210 to 215 °C

# input molecule: Cc1c(-c2cc(CN(C)C)ccc2F)sc2nc(N)[nH]c(=O)c12 ; wanted: its melting point
230 to 250 °C

Endpoint output: melting point of Cl.O=C(NO)c1cc(NS(=O)(=O)Cc2ccc(Cl)c(Cl)c2)ccn1 . Value?
228 to 238 °C

Please look up its melting point: Nc1nc2sc(-c3ccccc3)cc2c(=O)[nH]1
> 360 °C

// melting point lookup, key: CC(C)(C)OC(=O)N1CC=C(c2ccnc(C(=O)N(O)Cc3ccccc3)c2)CC1
125 °C

melting point lookup needed for CC(C)(C)OC(=O)N1CCC=C(c2ccnc(C(=O)N(O)Cc3ccccc3)c2)C1 , thanks.
128 to 134 °C

Given the molecule Cc1c(-c2cccc(Cl)c2F)sc2nc(N)[nH]c(=O)c12 , what is its reported melting point?
330 to 350 °C

Consider the molecule Cc1c(-c2cnccn2)sc2nc(N)[nH]c(=O)c12 and give its measured melting point.
280 to 300 °C

Returns the measured melting point for the input molecule. Input: O=C(NOCc1ccccc1)c1cc2ccccc2cn1
85 to 90 °C

# query: melting point of entry Cc1c(-c2cccc(CN(C)C)c2)sc2nc(N)[nH]c(=O)c12
207 to 212 °C

So what does the record say about melting point for Cc1c(-c2ccc(Cl)c(C(F)(F)F)c2)sc2nc(N)[nH]c(=O)c12 ?
> 350 °C

Can you share its melting point? I mean this molecule: Nc1nc2sc(Cc3ccccc3)cc2c(=O)[nH]1
294 to 296 °C

Requested field: melting point. Item: Cl.O=C(NO)c1cc(NS(=O)(=O)C(c2ccccc2)c2ccccc2)ccn1
162 to 168 °C

Any idea what its melting point is? The molecule is CCONC(=O)c1cc(NCc2cccc(OCc3ccccc3)c2)ccn1.Cl
70 to 75 °C

// returns reported melting point for input O=C(NOCc1ccccc1)c1ccc(-c2ccccc2)cn1
155 to 160 °C

Entry O=C(c1cc2ccccc2cn1)N(Cc1ccccc1)OCc1ccccc1 : reported melting point = ?
70 to 75 °C

Which value of melting point has been reported for COc1cc(-c2sc3nc(N)[nH]c(=O)c3c2C)ccc1Cl in the records?
312 to 322 °C

Quick one: melting point for Cc1c(-c2ccc(Cl)c(F)c2)sc2nc(N)[nH]c(=O)c12 ?
350 to 370 °C

Could you tell me which melting point is on file for Cc1c(-c2ccc(Cl)c(C#N)c2)sc2nc(N)[nH]c(=O)c12 ?
> 360 °C

Which value of melting point has been reported for CC(C)c1cccc(-c2ccc(C(=O)NO)nc2)c1 in the records?
130 to 135 °C

Requested field: melting point. Item: Cl.O=C(NO)c1cc(NS(=O)(=O)Cc2cc(Cl)cc(Cl)c2)ccn1
203 to 205 °C

Param item = O=C(c1cc(C2=CCCCC2)ccn1)N(O)Cc1ccccc1 ; retrieve measured melting point.
118 to 122 °C

// lookup melting point for Cc1c(-c2ccc(F)c(C#N)c2F)sc2nc(N)[nH]c(=O)c12
360 to 380 °C

Data request, read-out melting point, for Cc1c(-c2ccccc2)sc2nc(NCCNC(=O)CCN3CCN(C)CC3)[nH]c(=O)c12
235 to 245 °C

Quick check: melting point of Cl.O=C(c1cc(N2CCC(F)(F)CC2)ccn1)N(O)Cc1ccccc1 ?
90 to 95 °C

What does the record list as melting point for Cl.O=C(c1cc(NS(=O)(=O)Cc2cccc(C(F)(F)F)c2)ccn1)N(O)Cc1ccccc1 ?
178 to 182 °C

Could you tell me which melting point is on file for Cc1c(-c2ccc(Cl)cc2F)sc2nc(N)[nH]c(=O)c12 ?
320 to 340 °C

Tell me the measured melting point of O=C(c1cc(N2CCCCC2)ccn1)N(O)CCCc1ccccc1 , please.
125 to 130 °C

melting point for Cc1c(-c2ccc(F)cc2F)sc2nc(N)[nH]c(=O)c12 ?
330 to 350 °C

Item under review: Cc1sc2nc(N)[nH]c(=O)c2c1-c1ccc(F)cc1 . Reported melting point?
360 to 362 °C

// lookup melting point for O=C(NO)c1cc2ccccc2cn1
160 to 165 °C

Given the entry O=C(NO)c1ccc(N2CCCC2)cn1 , report its measured melting point.
220 to 225 °C

What does the data say about its melting point? Entry: Cc1c(-c2ccccc2)sc2nc(N)[nH]c(=O)c12
356 to 358 °C

For the molecule CCONC(=O)c1ccc(-c2cccc(CN(C)Cc3ccccc3)c2)cn1.Cl (hydrate or solvate) , what melting point is on record?
85 to 90 °C

Fill blank: measured melting point of the molecule O=C(c1cc(C2=CC3CCC(C2)N3)ccn1)N(O)Cc1ccccc1 (stereo not drawn) is ____.
95 to 100 °C

Data request, read-out melting point, for Cc1c(Cc2ccc(Cl)cc2)sc2nc(N)[nH]c(=O)c12
300 to 320 °C

Fill in the blank: the reported melting point of O=C(c1cc(-c2ccc(Cl)c(Cl)c2)ccn1)N(O)Cc1ccccc1 is ____.
125 to 130 °C

Would you kindly share the measured melting point for O=C(c1cc2ccccc2cn1)N(O)CCc1ccccc1 ?
90 to 95 °C

// returns reported melting point for input O=C(c1ccc(N2CCCCC2)cn1)N(O)Cc1ccccc1
110 to 115 °C

Field request: melting point | item: CN(C)S(=O)(=O)c1cccc(-c2ccnc(C(=O)N(O)Cc3ccccc3)c2)c1
110 to 115 °C

Give the measured melting point of Cc1c(-c2ccccc2)sc2nc(NCCN(C)C)[nH]c(=O)c12 .
199 to 201 °C

What value of measured melting point is listed for Cc1c(-c2ccc(F)cc2)sc2nc(N)[nH]c(=O)c12 ?
325 to 335 °C

I am curious: what melting point value has been reported for NC(=O)c1ccc(-c2ccnc(C(=O)N(O)Cc3ccccc3)c2)cc1 ?
155 to 160 °C

Consider the molecule shown here: Cc1c(-c2ccc(F)nc2F)sc2nc(N)[nH]c(=O)c12 What is its recorded melting point?
330 to 335 °C

----------
# assay.system: PB2 cap binding domain (CBD) (Influenza A virus, UniProt Q9Q0V1)
# Sequence (Q9Q0V1 318-483 limits assumed): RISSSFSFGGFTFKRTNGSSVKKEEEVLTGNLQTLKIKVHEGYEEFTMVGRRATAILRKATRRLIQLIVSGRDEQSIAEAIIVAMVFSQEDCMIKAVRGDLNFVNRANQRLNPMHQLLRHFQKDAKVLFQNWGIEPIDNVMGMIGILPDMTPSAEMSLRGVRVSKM
I'd appreciate it if you marked entries t when Kd is lower than 5 µM and f when it is not.

Threshold test, Kd < 5 µM: COc1ccc(-c2sc3nc(N)[nH]c(=O)c3c2C)cc1
t

For this compound, is Kd lower than 5 µM? Nc1nc2sc(-c3ccccc3)cc2c(=O)[nH]1
f

Bench note: check whether Cc1c(-c2ccncc2)sc2nc(N)[nH]c(=O)c12 shows Kd below 5 µM
f

Input Cc1c(-c2ccccc2)sc2nc(NCCN(C)C)[nH]c(=O)c12 ; condition: Kd strictly below 5 µM. Does it hold?
f

Hi there! Is Kd for Cc1c(-c2cc(C#N)ccc2Cl)sc2nc(N)[nH]c(=O)c12 below 5 µM, do you know?
t

is_below(Kd, 5 µM) for Cc1c(-c2cccc(Cl)c2F)sc2nc(N)[nH]c(=O)c12 ?
t

Please let me know if Cc1c(-c2ccc(Cl)c(F)c2)sc2nc(N)[nH]c(=O)c12 shows Kd below 5 µM.
t

Bench note: check whether Nc1nc2sc(Cc3ccccc3)cc2c(=O)[nH]1 shows Kd below 5 µM
f

Strictly below 5 µM in Kd? Cc1c(-c2ccccc2F)sc2nc(N)[nH]c(=O)c12
t

Could you please tell me whether Kd recorded for Cc1c(-c2cc(C(F)(F)F)cc(C(F)(F)F)c2)sc2nc(N)[nH]c(=O)c12 is less than 5 µM?
t

Could you please tell me whether Kd recorded for Cc1c(-c2cccc(C(F)(F)F)c2)sc2nc(N)[nH]c(=O)c12 is less than 5 µM?
t

Consider the compound Cc1c(-c2cccc(Cl)c2)sc2nc(N)[nH]c(=O)c12 . Is its Kd strictly less than 5 µM?
f

Determine whether this compound shows Kd lower than 5 µM (ties excluded): Cc1c(-c2cccc(C#N)c2F)sc2nc(N)[nH]c(=O)c12
t

Criterion: Kd strictly below 5 µM. Is it met by Cc1c(-c2ccc(Cl)nc2)sc2nc(N)[nH]c(=O)c12 ?
t

Check if Kd falls below 5 µM for Cc1c(-c2ccc(F)c(C#N)c2F)sc2nc(N)[nH]c(=O)c12 .
f

Strictly below 5 µM in Kd? Cc1c(-c2cccnc2)sc2nc(N)[nH]c(=O)c12
f

Does this compound meet the criterion Kd < 5 µM? Cc1c(-c2cc(C#N)ccc2F)sc2nc(N)[nH]c(=O)c12
t

Check if Kd falls below 5 µM for CC(c1ccccc1)c1cc2c(=O)[nH]c(N)nc2s1 (centres unmarked) .
f

Kd under 5 µM? Item: Cc1c(-c2ccnc(Cl)c2F)sc2nc(N)[nH]c(=O)c12
t

Check if Kd falls below 5 µM for Cc1cccc(-c2sc3nc(N)[nH]c(=O)c3c2C)c1 .
f
